# measured.on: recombinant human HDAC6 (Homo sapiens, UniProt Q9UBN7)
# Sequence (Q9UBN7 whole entry): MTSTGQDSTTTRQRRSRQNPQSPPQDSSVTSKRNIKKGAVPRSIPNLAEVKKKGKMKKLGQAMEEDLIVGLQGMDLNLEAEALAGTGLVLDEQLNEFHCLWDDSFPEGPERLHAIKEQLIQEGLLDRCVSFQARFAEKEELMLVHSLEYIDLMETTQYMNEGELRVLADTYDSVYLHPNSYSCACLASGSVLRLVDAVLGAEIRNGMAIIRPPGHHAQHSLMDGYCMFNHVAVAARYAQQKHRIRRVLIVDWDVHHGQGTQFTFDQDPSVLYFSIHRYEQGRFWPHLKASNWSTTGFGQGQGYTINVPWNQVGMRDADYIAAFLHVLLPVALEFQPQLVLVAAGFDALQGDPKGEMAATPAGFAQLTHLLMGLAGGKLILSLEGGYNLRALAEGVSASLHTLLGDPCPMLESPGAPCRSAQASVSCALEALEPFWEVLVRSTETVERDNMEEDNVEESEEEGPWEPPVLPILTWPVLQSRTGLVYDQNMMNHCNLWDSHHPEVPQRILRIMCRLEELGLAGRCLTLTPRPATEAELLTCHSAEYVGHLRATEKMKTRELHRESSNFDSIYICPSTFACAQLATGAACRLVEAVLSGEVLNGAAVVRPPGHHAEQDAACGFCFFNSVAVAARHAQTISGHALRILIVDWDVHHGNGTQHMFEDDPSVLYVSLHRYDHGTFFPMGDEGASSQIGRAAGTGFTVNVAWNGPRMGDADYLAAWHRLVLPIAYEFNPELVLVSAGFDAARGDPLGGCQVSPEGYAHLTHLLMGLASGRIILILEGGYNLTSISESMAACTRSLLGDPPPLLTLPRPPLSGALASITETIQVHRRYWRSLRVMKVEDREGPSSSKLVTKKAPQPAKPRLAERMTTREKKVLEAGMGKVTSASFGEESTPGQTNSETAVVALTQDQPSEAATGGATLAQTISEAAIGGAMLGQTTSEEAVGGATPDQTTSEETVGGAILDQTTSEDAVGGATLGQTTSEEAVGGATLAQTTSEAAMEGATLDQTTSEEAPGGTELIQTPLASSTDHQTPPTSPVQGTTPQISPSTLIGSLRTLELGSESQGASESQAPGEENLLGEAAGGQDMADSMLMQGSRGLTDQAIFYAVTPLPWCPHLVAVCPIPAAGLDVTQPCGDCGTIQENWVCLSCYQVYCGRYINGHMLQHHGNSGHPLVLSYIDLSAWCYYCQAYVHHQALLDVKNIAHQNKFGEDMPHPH
# experimental.details: biochemical
readout.kind: IC50 (nM)

> print(dat)
                                smiles.code  measurement
1  O=C(C=Cc1ccc2c(c1)CCN2S(=O)(=O)c1ccccc1)NO         29.5
